- tgt: MHPH6 (Microbacterium maritypicum)
- Construct: expressed in transfected cells; host or cells: E. coli BLR transformed with pSHP11H (pTTQ18 derivative), IPTG-induced
- testName: Substrate screening: competitive inhibition of 3H-L-BH uptake by E. coli BLR/pSHP11H
- Type: cell-based, Microbacterium liquefaciens AJ3912
- experimentalConditions: curve-fitted assuming simple competitive inhibition, variety of concentrations
Known relative affinity for MHPH6 (affinity of L-BH = 1) of a selection of compounds
Keep it simple and answer with nothing but the number.

Solved entries (count: 3):
[[record]]
compound = "O=C1NC(=O)[C@@H](Cc2c[nH]c3ccccc23)N1"
assayvalue = 0.96

[[record]]
compound = "O=C1NC(=O)[C@@H](Cc2ccccc2)N1"
assayvalue = 0.20

[[record]]
compound = "O=C1NC(=O)[C@H](Cc2c[nH]c3ccccc23)N1"
assayvalue = 5.32


Attention now turns to another entry.
Record O=C1NC(=O)C(Cc2ccccc2)N1 (stereo not shown) , field relative affinity for MHPH6 (affinity of L-BH = 1): 1.05

----------
- tgt: MHPH6 (Microbacterium maritypicum, UniProt D6R8X8)
- Construct: expressed in transfected cells; host or cells: E. coli BLR transformed with pSHP11H (pTTQ18 derivative), IPTG-induced
- Sequence (D6R8X8 with tags, fused parts or gaps): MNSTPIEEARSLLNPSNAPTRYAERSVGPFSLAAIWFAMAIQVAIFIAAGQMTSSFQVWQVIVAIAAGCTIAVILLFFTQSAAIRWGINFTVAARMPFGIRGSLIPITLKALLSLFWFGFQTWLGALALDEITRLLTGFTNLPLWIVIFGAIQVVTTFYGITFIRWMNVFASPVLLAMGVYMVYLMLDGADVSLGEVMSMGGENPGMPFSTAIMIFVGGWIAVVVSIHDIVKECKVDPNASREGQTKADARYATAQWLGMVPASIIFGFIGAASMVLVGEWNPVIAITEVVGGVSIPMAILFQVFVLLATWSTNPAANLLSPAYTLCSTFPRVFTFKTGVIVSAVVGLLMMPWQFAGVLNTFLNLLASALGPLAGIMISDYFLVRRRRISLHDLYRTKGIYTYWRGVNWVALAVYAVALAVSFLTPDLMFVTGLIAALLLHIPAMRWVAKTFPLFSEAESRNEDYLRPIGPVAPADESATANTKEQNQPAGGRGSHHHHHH
- testName: Substrate screening: competitive inhibition of 3H-L-BH uptake by E. coli BLR/pSHP11H
- Format: cell-based, Microbacterium liquefaciens AJ3912
- experimentalConditions: 250 μM cold compound, 25 μM 3H-L-BH, uptake after 3 minutes
Here, each record is paired with measured uptake activity of 3H-L-BH (relative activity, no compound added = 100%) data.
Give just the numeric value; % need not be written.

These recorded examples may help you get a feel for the data.
[[record]]
molecule = "O=C1NC(=O)C(Cc2ccccc2)N1 [L-BH, 5-L-benzyl hydantoin]"
unitname = "%"
assayvalue = 7

[[record]]
molecule = "O=C1NC(=O)[C@H](Cc2c[nH]c3ccccc23)N1 [L-IMH, 5-L-indolylmethyl hydantoin]"
unitname = "%"
assayvalue = 3

[[record]]
molecule = "O=C1NC(=O)[C@@H](Cc2ccccc2)N1 [D-BH]"
unitname = "%"
assayvalue = 47


GET /value?item= O=C1NC(=O)[C@@H](Cc2c[nH]c3ccccc23)N1 [D-IMH] &field=uptake activity of 3H-L-BH (relative activity, no compound added = 100%) returns 24
